Test system: glucose-6-phosphate dehydrogenase-6-phosphogluconolactonase (Plasmodium falciparum 3D7)
assay-remarks: inhibition of malaria parasite G6PD (PfGluPho) – biochemical, fluorescence intensity, uHTS, primary screen (AID 504690);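 note: 0% = DMSO wells with substrate and 100% = DMSO wells lacking glucose-6-phosphate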
conditions-used: PfGluPho enzyme, NADPH resazurin-diaphorase fluorescence; at 20 µM; hits give high values
About 2,700 (0.77%) of roughly 350,000 compounds were called active. This excerpt belongs to a sample that is enriched for actives.
measurement-label: inhibition (%)
// note: answer is a bare numeric in %

[[record]]
molecule = "CC(=O)OC1C2(CC3N4C(=O)C5(CO)SSC4(CC31O)C(=O)N5C)OC(C)C(C)(C)C2=O (stereo unspecified)"
measurement_label = "inhibition"
unit_abbreviation = "%"
quantitative_readout = 19.4

[[record]]
molecule = "COc1ccc2c(c1)NP(=S)(c1ccccc1)N2 (stereo unspecified)"
measurement_label = "inhibition"
unit_abbreviation = "%"
quantitative_readout = 46.5

[[record]]
molecule = "O=C(NCC(c1cccnc1)N1CCN(c2ccccc2)CC1)Oc1ccccc1 (stereo unspecified)"
measurement_label = "inhibition"
unit_abbreviation = "%"
quantitative_readout = 7.5

[[record]]
molecule = "COC(=O)N(c1ccc(OC)cc1)P1(=S)OCCC(C)O1 (stereo unspecified)"
measurement_label = "inhibition"
unit_abbreviation = "%"
quantitative_readout = 81.9

[[record]]
molecule = "C[C@@]1([C@@H](NP(=O)(c2ccccc2)c2ccccc2)c2ccccc2)C[C@H]1CCO"
measurement_label = "inhibition"
unit_abbreviation = "%"
quantitative_readout = -0.29


Query string: Recorded inhibition for Cc1cc(C)c2c(c1)NP(=S)(c1ccccc1)N2 (stereo unspecified) , please?
Result string: 63.6

Query string: Recorded inhibition for `C/C=C/CC1(CC)C(=O)NC(=S)NC1=O` , please?
Result string: -4.76

Query string: Recorded inhibition for CCOP(=S)(OCC)C(O)CCCCCn1c(=O)c(F)cn(C2CCCO2)c1=O (stereo unspecified) , please?
Result string: 11.4

Query string: Recorded inhibition for `C=CCn1c(O)c(/C=N/N2CCOCC2)c(=O)[nH]c1=S` , please?
Result string: -2.25

Query string: Recorded inhibition for `CN1CCN(c2cc(N3CCNCC3)ccc2[N+](=O)[O-])CC1` , please?
Result string: 1.22

Query string: Recorded inhibition for `Nc1ccc(Cc2ccc(N)c(Cl)c2)cc1Cl` , please?
Result string: -5.41
